System: pylorus ligature ulcer formation
assay_info: Protective action on pylorus ligature ulcer formation
Type: in vivo, Sprague-Dawley strain male rats
assay_conditions: 200 mg/kg, in the duodenum, rats, 16 hours after pylorus ligature
measured_parameter: Percent Perforating Ulcers (%)

1) Cc1ccccc1C(=O)Nc1ccc(C(=O)NCCCN(C)C)c(NC(=O)c2ccccc2C)c1 | 0
2) Cc1cccc(C(=O)Nc2ccc(OCCCN(C)C)c(NC(=O)c3cccc(C)c3)c2)c1 | 0
3) Cc1ccccc1C(=O)Nc1ccc(OCCCN(C)C)c(NC(=O)c2ccccc2C)c1 | 0
4) Cc1cccc(C(=O)Nc2ccc(C(=O)NCCCN(C)C)c(NC(=O)c3cccc(C)c3)c2)c1 | 0

---

assay_info: Acute toxicity in mice
assay_conditions: mouse, in vivo, iv, hydrochloride in physiological saline, Up and Down Method
measured_parameter: LD50 (mg/kg)

1) Cc1cccc(C(=O)Nc2ccc(C(=O)NCCCN(C)C)c(NC(=O)c3cccc(C)c3)c2)c1 | 88
2) Cc1cccc(C(=O)Nc2ccc(OCCCN(C)C)c(NC(=O)c3cccc(C)c3)c2)c1 | 38
3) Cc1ccccc1C(=O)Nc1ccc(C(=O)NCCCN(C)C)c(NC(=O)c2ccccc2C)c1 | 111
4) Cc1ccccc1C(=O)Nc1ccc(OCCCN(C)C)c(NC(=O)c2ccccc2C)c1 | 42

All figures here come from patent US4058523A.
